The measured values listed here are drawn from the supplement of paper PMC6555819.

- System: RARb homodimer (NR concentration 270 nM)
- assay: PBM binding z-score (relative to random genomic background probes); higher = stronger binding; sequences stand for … in GC…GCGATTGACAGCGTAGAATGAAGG
measured attribute: PBM binding z-score
Lab note: jot the number down without any unit.

Per the records, this sequence ( `GCTAGCAGGCCATTTGGATCACTCAATGACGGGC` ) has PBM binding z-score equal to -0.535

Per the records, this sequence ( `ATCTCTAGGTAACCAAGTTTAGTGAATGCCGAAC` ) has PBM binding z-score equal to 0.287

Per the records, this sequence ( `TCTAGTTGGTCACGGCGGTCACACACGACGGGTA` ) has PBM binding z-score equal to 2.92

Per the records, this sequence ( `ACTAGCAGCCCAAGTTTGGGTCACTCAAACAAAG` ) has PBM binding z-score equal to 1.74

Per the records, this sequence ( `AGAATGAGGTTACCAAAGATCATGGAAACGCTTG` ) has PBM binding z-score equal to 0.797

Per the records, this sequence ( `CATATAGGGTCAGCTAGGCCAGAGTAGGGACGGC` ) has PBM binding z-score equal to 3.33

----------
// reported PBM binding z-score for each item listed
- System: LXRb:RXRa (NR concentration 270 nM, RXRa partner concentration 90 nM)
- assay: PBM binding z-score (relative to random genomic background probes); higher = stronger binding; sequences stand for … in GC…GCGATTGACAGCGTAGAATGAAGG
Lab note: jot the number down without any unit.

Completed entries (count: 5):
- residues: "CCTATTAGTAGACCATAAGGGCAACCGAAGCTCG"
  target: "LXRb:RXRa (NR concentration 270 nM, RXRa partner concentration 90 nM)"
  PBM binding z-score: 0.468
- residues: "ATCGAAAGGTCGTGAGGTGAGTAAACAGAAAGGC"
  target: "LXRb:RXRa (NR concentration 270 nM, RXRa partner concentration 90 nM)"
  PBM binding z-score: 3.14
- residues: "CCCACTGGGCCATCAGGTCATTGATATCAACGTT"
  target: "LXRb:RXRa (NR concentration 270 nM, RXRa partner concentration 90 nM)"
  PBM binding z-score: 1.63
- residues: "ATCTCTAGGTAACGAAGTTCAGTGAATGCCGAAC"
  target: "LXRb:RXRa (NR concentration 270 nM, RXRa partner concentration 90 nM)"
  PBM binding z-score: 0.411
- residues: "ATCTCTAGTTAACCAAGTTCAGTGAATGCCGAAC"
  target: "LXRb:RXRa (NR concentration 270 nM, RXRa partner concentration 90 nM)"
  PBM binding z-score: 0.741

Per the records, this sequence ( `ATCTCTAGGCAAGACTCAGTTCAGTGAAGAACGC` ) has PBM binding z-score equal to -0.438

----------
// reported PBM binding z-score for each item listed
- Test system: THRa:RXRa (NR concentration 90 nM, RXRa partner concentration 90 nM)
- assay: PBM binding z-score (relative to random genomic background probes); higher = stronger binding; sequences stand for … in GC…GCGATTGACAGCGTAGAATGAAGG
Lab note: jot the number down without any unit.

- residues: "TATACAGGGTCAAAGCCCAGAGTACGAATGTCGA"
  target: "THRa:RXRa (NR concentration 90 nM, RXRa partner concentration 90 nM)"
  measured attribute: "PBM binding z-score"
  value measured: 3.23
- residues: "TGAATGAGCTTAAAGATCAGGGAACGTGGCGTCG"
  target: "THRa:RXRa (NR concentration 90 nM, RXRa partner concentration 90 nM)"
  measured attribute: "PBM binding z-score"
  value measured: -0.475
- residues: "CAAACTAGGTCAAGAGGTGAAAGTCCGCTTCCCG"
  target: "THRa:RXRa (NR concentration 90 nM, RXRa partner concentration 90 nM)"
  measured attribute: "PBM binding z-score"
  value measured: 3.58
- residues: "ATCTCTAGGTAAAGCTCAGTGAAAGATCGATAGA"
  target: "THRa:RXRa (NR concentration 90 nM, RXRa partner concentration 90 nM)"
  measured attribute: "PBM binding z-score"
  value measured: 0.19

Per the records, this sequence ( `GCTGCTAGGTCAGGTCGGTCAGCTAACGGGTACG` ) has PBM binding z-score equal to 2.48

Per the records, this sequence ( `GGAACGAGGGCATTCGAGTTGATATCATGGCGAT` ) has PBM binding z-score equal to 3.38

----------
- Tested on: RARb:RXRa (NR concentration 270 nM, RXRa partner concentration 90 nM)
- assay: PBM binding z-score (relative to random genomic background probes); higher = stronger binding; sequences stand for … in GC…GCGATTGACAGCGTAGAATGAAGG
measured attribute: PBM binding z-score

- residues: "CCTTACGGTTCACTCCAGGTTATAGCATCGGAGT"
  measured attribute: "PBM binding z-score"
  value measured: 1.29
- residues: "GCAGACAGGTGAAACGCAGGTAACCCAGGGTGGC"
  measured attribute: "PBM binding z-score"
  value measured: 0.601
- residues: "CCAGACAGGTGAGAAGGAAACTCAGCCTCGATTA"
  measured attribute: "PBM binding z-score"
  value measured: 0.0743
- residues: "TGAATGAGGCTAAAGATCAGGGAACGTGGCGTCG"
  measured attribute: "PBM binding z-score"
  value measured: 0.177
- residues: "TCTTGTAGATCAACCAGGTTAAGAAAGCCTGAGT"
  measured attribute: "PBM binding z-score"
  value measured: 0.316

Measured on RARb:RXRa (NR concentration 270 nM, RXRa partner concentration 90 nM), `TCTTGTAGATCAATAGGGGTTAAGAAAGTGCGCT` has a documented PBM binding z-score of 1.2

Measured on RARb:RXRa (NR concentration 270 nM, RXRa partner concentration 90 nM), `TCATATAGGTAAAGGGGAAAGTCGAACGATATGA` has a documented PBM binding z-score of 0.83

Measured on RARb:RXRa (NR concentration 270 nM, RXRa partner concentration 90 nM), `AGAACGGGGGCACGCTGAGTTGATAGCAGAGTAG` has a documented PBM binding z-score of 3.1

Measured on RARb:RXRa (NR concentration 270 nM, RXRa partner concentration 90 nM), `AGAATGAGGTTAAGGTCAGGGAAACAGAATACAT` has a documented PBM binding z-score of 4.27

Measured on RARb:RXRa (NR concentration 270 nM, RXRa partner concentration 90 nM), `ATCTCTGGGTAACCAAGTTCAGTGAATGCCGAAC` has a documented PBM binding z-score of 1.24

Measured on RARb:RXRa (NR concentration 270 nM, RXRa partner concentration 90 nM), `ATCTCTAGGTAAAGTTCAGTGGAAGATCGATAGA` has a documented PBM binding z-score of 2.86

----------
- System: RARg:RXRa (NR concentration 270 nM, RXRa partner concentration 90 nM)
- assay: PBM binding z-score (relative to random genomic background probes); higher = stronger binding; sequences stand for … in GC…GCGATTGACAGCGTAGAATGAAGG
measured attribute: PBM binding z-score

Completed entries (count: 6):
- residues: "ATACCAAGATGATCGTGAGGTCGTTGATACTAAC"
  PBM binding z-score: 0.596
- residues: "TTACCAAGGTGAAGTTCGTTGATCCCTCTGTAGA"
  PBM binding z-score: 0.78
- residues: "ACAGACAGGTGAGTGAAGGTTACTCAGCTGGACG"
  PBM binding z-score: 0.724
- residues: "GCGACTGGGGCATCAGCAGGTAACCATAACTTAA"
  PBM binding z-score: 0.292
- residues: "ATATGTAGGTTAGCTGGGGTCACTCAGACTAGGC"
  PBM binding z-score: 4.29
- residues: "CCTAGTTGGTCAGGAGTTCACACACCGGATATGA"
  PBM binding z-score: 3.12

Per the records, this sequence ( `CGAACTAGGTCAAGGACATTGAATCTCCGCACGC` ) has PBM binding z-score equal to 3.91

----------
- Tested on: LXRa homodimer (NR concentration 270 nM)
- assay: PBM binding z-score (relative to random genomic background probes); higher = stronger binding; sequences stand for … in GC…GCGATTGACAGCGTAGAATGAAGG
measured attribute: PBM binding z-score

Per the records, this sequence ( `AGAACGAGGACACGCTGAGTTGATAGCAGAGTAG` ) has PBM binding z-score equal to -0.296

Per the records, this sequence ( `GCTTGTAGATCAAGGTAAAGAAAGACTAAGCTAA` ) has PBM binding z-score equal to -0.768

Per the records, this sequence ( `CCTGCTAGGTCATGGTCAGCCAATCTACAGTATG` ) has PBM binding z-score equal to -0.0941
